Assay: Locomotor stimulant and depressant effects in mice
Details: male, Swiss-Webster, mouse, in vivo, ip
The entries below are paired with their reported ED50 at 30 min.
measured quantity: ED50 at 30 min (mg/kg)

>>> readout_number("CN[C@H](C)[C@H](O)c1ccccc1 (single isomer, unassigned) [(−)-pseudoephedrine]")
14.6
>>> readout_number("CN[C@@H](C)[C@@H](O)c1ccccc1 (single isomer, unassigned) [(+)-pseudoephedrine]")
12.6

----------
Molecular target: α2-receptors
Test: ALPHA-2 binding, p-125Iodoclonidine, canine brain (frontal cortex) membranes
Set-up: species or system dog
Conditions: radioligand, Scatchard Analysis; read-out: Kd1 (high affinity)
pKd: −log10 of the molar value.
measured quantity: pKd

>>> readout_number("Clc1cc(I)cc(Cl)c1NC1=NCCN1 [p-iodoclonidine]")
9.82
